Target: DDR2 (Homo sapiens, UniProt Q16832)
Sequence (Q16832 22-855): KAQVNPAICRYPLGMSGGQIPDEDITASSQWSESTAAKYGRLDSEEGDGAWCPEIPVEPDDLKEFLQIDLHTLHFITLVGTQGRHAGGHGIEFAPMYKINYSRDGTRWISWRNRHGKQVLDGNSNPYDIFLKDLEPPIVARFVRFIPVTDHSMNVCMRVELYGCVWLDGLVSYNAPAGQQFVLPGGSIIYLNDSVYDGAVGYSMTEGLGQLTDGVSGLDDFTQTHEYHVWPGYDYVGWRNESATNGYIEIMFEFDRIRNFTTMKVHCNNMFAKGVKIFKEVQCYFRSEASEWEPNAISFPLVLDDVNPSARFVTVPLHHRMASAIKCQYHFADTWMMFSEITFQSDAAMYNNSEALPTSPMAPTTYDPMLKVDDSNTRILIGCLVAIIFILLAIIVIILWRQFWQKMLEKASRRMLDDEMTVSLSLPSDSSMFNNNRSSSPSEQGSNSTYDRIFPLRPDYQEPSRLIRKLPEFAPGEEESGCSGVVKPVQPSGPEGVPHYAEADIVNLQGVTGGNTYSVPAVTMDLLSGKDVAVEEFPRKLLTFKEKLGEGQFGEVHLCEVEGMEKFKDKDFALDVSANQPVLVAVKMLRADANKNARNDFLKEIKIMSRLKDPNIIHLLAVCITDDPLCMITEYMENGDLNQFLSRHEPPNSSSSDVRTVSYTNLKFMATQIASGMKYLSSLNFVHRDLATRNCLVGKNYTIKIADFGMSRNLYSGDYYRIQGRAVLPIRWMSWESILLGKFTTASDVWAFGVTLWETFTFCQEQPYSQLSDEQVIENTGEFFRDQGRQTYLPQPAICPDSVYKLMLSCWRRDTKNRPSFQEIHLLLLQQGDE
Assay: ELISA kinase assay, DDR2
Assay type: biochemical
Conditions: DDR2 IC50, two separate experiments
TEST READOUT: log10 IC50 (log10 of the value in nM)
// units: nM (pre-log); metric: IC50; scale: log10

log10 IC50 of Cc1ccc(C(=O)Nc2cccc(C(F)(F)F)c2)cc1-c1ccc2nc(NC3CC3)ncc2c1 [Compound 16] on DDR2 (Homo sapiens, UniProt Q16832)?
1.00

Do the same for Cc1ccc(C(=O)Nc2cccc(C(F)(F)F)c2)cc1-c1ccc2nc(Nc3cnn(C)c3)nc(N)c2c1 [Compound 23] please
0.81

Do the same for Cc1ccc(C(=O)Nc2cccc(C(F)(F)F)c2)cc1-c1ccc2ncnc(N)c2c1 [Compound 14] please
0.58

Do the same for Cc1ccc(C(=O)Nc2cc(CN3CCN(C4CCCC4)CC3)cc(C(F)(F)F)c2)cc1-c1ccc2nc(Nc3cnn(C)c3)ncc2c1 [Compound 27] please
0.49

Do the same for Cc1ccc(C(=O)Nc2cccc(C(F)(F)F)c2)cc1-c1ccc2ccncc2c1 [Compound 11] please
0.20

Do the same for Cc1ccc(C(=O)Nc2cccc(C(F)(F)F)c2)cc1-c1ccc2nc(Nc3cnn(C4CC4)c3)ncc2c1 [Compound 24] please
0.45

Do the same for Cc1ccc(C(=O)Nc2cc(CN3CCN(C(C)C)CC3)cc(C(F)(F)F)c2)cc1-c1ccc2nc(Nc3cnn(C)c3)ncc2c1 [Compound 26] please
0.34

Do the same for CC(=O)N1CCN(Cc2cc(NC(=O)c3ccc(C)c(-c4ccc5nc(Nc6cnn(C)c6)ncc5c4)c3)cc(C(F)(F)F)c2)CC1 [Compound 28] please
0.26

Do the same for Cc1ccc(C(=O)Nc2cc(CN3CCN(C)CC3)cc(C(F)(F)F)c2)cc1-c1ccc2nc(Nc3cnn(C)c3)ncc2c1 [Compound 25] please
0.23

Do the same for Cc1ccc(C(=O)Nc2cccc(C(F)(F)F)c2)cc1-c1ccc2c(c1)NC(=O)C2 [Compound 9] please
0.69

Do the same for CCc1ccc(C(=O)Nc2cccc(C(F)(F)F)c2)cc1-c1ccc2nc(Nc3cnn(C)c3)ncc2c1 [Compound 32] please
0.61

Do the same for COc1ccc(C(=O)Nc2cccc(C(F)(F)F)c2)cc1-c1ccc2nc(Nc3cnn(C)c3)ncc2c1 [Compound 33] please
0.36

Do the same for Cc1ccc(C(=O)Nc2cccc(C(F)(F)F)c2)cc1-c1ccc2nc(N3CCN(C)CC3)ncc2c1 [Compound 19] please
1.63

Do the same for Cc1ccc(C(=O)Nc2cccc(C(F)(F)F)c2)cc1-c1ccc2cnccc2c1 [Compound 12] please
1.56

Do the same for Cc1ccc(C(=O)Nc2cccc(C(F)(F)F)c2)cc1-c1ccc2c(c1)COCC2 [Compound 10] please
1.32

Do the same for Cc1ccc(C(=O)Nc2cccc(C(F)(F)F)c2)cc1-c1ccc2nc(NCCN3CCOCC3)ncc2c1 [Compound 18] please
0.53

Do the same for Cc1ccc(C(=O)Nc2cccc(C(F)(F)F)c2)cc1-c1ccc2ncncc2c1 [Compound 13] please
0.41

---

Record type: IC50 measurement. Applies to: DDR1 (Homo sapiens)
Don't forget the unit after the value.

Value lookup for IC50; key = `Cc1ccc(C(=O)Nc2cccc(C(F)(F)F)c2)cc1-c1ccc2nc(Nc3cnn(C4CC4)c3)ncc2c1`
13.8 nM

Do the same for `O=C(Nc1cccc(C(F)(F)F)c1)c1ccc(C2CC2)c(-c2ccc3nc(Nc4cnn(C5CC5)c4)ncc3c2)c1` please
16 nM

Do the same for `Cc1ccc(C(=O)Nc2cccc(C(F)(F)F)c2)cc1-c1ccc2nc(Nc3cnn(C)c3)ncc2c1` please
8.13 nM

Do the same for `Cc1ccc(C(=O)Nc2cccc(C(F)(F)F)c2)cc1-c1ccc2cn[nH]c2c1` please
9.74 nM

---

Could you please report measured inhibition at 0.1 µM for the items listed next?
target: Flt-3 (Homo sapiens, UniProt P36888); assay: ELISA kinase assay, Flt-3; type: biochemical; settings: read-out: Flt-3 inhibition@100 nmol/L
Sequence (P36888 27-993): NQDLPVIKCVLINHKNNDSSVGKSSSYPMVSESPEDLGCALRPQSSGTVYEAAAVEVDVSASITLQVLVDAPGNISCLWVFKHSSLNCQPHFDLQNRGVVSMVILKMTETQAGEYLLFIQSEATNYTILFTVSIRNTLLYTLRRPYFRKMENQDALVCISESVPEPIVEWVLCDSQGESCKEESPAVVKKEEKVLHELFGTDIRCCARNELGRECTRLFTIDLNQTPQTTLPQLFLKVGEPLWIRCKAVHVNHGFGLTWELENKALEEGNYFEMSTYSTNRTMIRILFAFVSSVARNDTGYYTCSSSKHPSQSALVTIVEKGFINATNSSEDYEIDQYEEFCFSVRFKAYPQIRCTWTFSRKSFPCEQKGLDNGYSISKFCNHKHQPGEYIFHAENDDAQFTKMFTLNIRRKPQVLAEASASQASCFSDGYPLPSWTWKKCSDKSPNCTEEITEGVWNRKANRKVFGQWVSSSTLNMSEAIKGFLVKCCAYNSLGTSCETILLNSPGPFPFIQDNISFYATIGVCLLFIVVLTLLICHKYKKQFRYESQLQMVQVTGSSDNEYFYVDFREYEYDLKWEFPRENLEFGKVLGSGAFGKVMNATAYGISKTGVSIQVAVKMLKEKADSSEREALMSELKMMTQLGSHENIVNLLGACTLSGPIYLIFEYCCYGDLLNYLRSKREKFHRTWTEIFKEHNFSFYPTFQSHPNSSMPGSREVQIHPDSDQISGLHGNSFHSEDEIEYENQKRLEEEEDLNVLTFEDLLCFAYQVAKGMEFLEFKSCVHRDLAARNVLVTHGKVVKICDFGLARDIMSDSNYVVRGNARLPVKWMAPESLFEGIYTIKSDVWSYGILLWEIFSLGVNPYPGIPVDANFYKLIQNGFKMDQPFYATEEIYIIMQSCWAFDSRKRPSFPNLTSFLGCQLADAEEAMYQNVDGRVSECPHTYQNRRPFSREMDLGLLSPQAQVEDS
Reply numerically in %, unit not repeated.

Value lookup for inhibition at 0.1 µM; key = `CCc1ccc(C(=O)Nc2cccc(C(F)(F)F)c2)cc1-c1ccc2nc(Nc3cnn(C)c3)ncc2c1`
61.8

Do the same for `CC(C)c1ccc(C(=O)Nc2cccc(C(F)(F)F)c2)cc1-c1ccc2nc(Nc3cnn(C)c3)ncc2c1` please
56.8

Do the same for `COc1ccc(C(=O)Nc2cccc(C(F)(F)F)c2)cc1-c1ccc2nc(Nc3cnn(C)c3)ncc2c1` please
59.7

Do the same for `O=C(Nc1cccc(C(F)(F)F)c1)c1ccc(C2CC2)c(-c2ccc3nc(Nc4cnn(C5CC5)c4)ncc3c2)c1` please
0

Do the same for `Cc1ccc(C(=O)Nc2cccc(C(F)(F)F)c2)cc1-c1ccc2nc(Nc3cnn(C)c3)ncc2c1` please
80.3

Do the same for `Cn1cc(Nc2ncc3cc(-c4cc(C(=O)Nc5cccc(C(F)(F)F)c5)ccc4C4CC4)ccc3n2)cn1` please
37.1

---

molecular target: KDR (Homo sapiens, UniProt P35968); assay: ELISA kinase assay, KDR; type: biochemical; conditions: read-out: KDR inhibition @100 nmol/L
Sequence (P35968 20-1356): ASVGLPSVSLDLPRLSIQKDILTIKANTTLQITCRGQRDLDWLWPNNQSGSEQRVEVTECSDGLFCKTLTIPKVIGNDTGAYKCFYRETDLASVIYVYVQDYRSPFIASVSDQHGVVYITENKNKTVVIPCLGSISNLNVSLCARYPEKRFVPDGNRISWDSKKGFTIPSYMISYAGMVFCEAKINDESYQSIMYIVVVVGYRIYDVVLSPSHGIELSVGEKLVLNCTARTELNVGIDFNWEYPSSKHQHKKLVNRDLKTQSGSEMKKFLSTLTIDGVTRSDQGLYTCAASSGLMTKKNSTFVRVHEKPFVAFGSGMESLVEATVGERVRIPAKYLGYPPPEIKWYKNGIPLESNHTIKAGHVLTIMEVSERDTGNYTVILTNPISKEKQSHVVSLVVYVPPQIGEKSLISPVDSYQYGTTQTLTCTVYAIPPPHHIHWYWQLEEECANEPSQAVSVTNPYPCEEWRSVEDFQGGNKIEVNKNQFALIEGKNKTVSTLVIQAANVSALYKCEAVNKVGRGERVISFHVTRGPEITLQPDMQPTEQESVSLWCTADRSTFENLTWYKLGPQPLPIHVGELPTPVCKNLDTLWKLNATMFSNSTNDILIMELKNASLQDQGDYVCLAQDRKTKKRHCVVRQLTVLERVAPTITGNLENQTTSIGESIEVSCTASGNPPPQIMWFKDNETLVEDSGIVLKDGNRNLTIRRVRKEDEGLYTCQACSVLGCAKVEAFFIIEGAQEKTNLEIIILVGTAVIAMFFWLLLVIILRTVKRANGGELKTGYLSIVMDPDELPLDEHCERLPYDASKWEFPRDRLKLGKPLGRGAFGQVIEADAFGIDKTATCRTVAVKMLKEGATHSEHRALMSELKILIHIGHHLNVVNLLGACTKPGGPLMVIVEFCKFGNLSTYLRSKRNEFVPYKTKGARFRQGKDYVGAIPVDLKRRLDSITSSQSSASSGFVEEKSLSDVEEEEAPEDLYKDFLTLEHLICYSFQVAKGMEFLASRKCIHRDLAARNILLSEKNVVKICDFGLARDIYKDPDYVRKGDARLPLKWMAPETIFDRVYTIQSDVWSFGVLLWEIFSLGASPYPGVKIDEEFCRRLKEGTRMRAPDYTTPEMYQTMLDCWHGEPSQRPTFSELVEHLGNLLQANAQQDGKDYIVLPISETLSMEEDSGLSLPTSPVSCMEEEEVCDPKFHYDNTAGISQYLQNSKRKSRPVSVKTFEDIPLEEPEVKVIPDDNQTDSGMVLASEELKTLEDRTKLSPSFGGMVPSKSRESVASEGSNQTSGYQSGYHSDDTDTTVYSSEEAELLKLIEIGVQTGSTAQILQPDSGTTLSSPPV
Could you label it Satisfied if measured inhibition at 0.1 µM is 90% or higher, and Not satisfied otherwise?

Item `O=C(Nc1cccc(C(F)(F)F)c1)c1ccc(C2CC2)c(-c2ccc3nc(Nc4cnn(C5CC5)c4)ncc3c2)c1` with inhibition at 0.1 µM of 90% or above?
Satisfied

Do the same for Cc1ccc(C(C)NC(=O)c2cccc(C(F)(F)F)c2)cc1-c1ccc2nc(Nc3cnn(C4CC4)c3)ncc2c1 (centres unmarked) please
Not satisfied

Do the same for `Cc1ccc(C(=O)NCc2cccc(C(F)(F)F)c2)cc1-c1ccc2nc(Nc3cnn(C)c3)ncc2c1` please
Satisfied

Do the same for Cc1ccc(NC(=O)C(C)c2cccc(C(F)(F)F)c2)cc1-c1ccc2nc(Nc3cnn(C)c3)ncc2c1 (centres unmarked) please
Not satisfied

---

target: Flt-3 (Homo sapiens, UniProt P36888); experiment: ELISA kinase assay, Flt-3; type: biochemical; details: read-out: Flt-3 inhibition @10 nmol/L
Could you please report measured inhibition at 0.01 µM for the items listed next?
Reply numerically in %, unit not repeated.

Value lookup for inhibition at 0.01 µM; key = Cc1ccc(C(=O)Nc2cc(CN3CCN(C(C)C)CC3)cc(C(F)(F)F)c2)cc1-c1ccc2nc(Nc3cnn(C)c3)ncc2c1 [Compound 26]
90.1

Do the same for CC(=O)N1CCN(Cc2cc(NC(=O)c3ccc(C)c(-c4ccc5nc(Nc6cnn(C)c6)ncc5c4)c3)cc(C(F)(F)F)c2)CC1 [Compound 28] please
92.4

Do the same for Cc1ccc(C(=O)Nc2cc(CN3CCN(C)CC3)cc(C(F)(F)F)c2)cc1-c1ccc2nc(Nc3cnn(C)c3)ncc2c1 [Compound 25] please
93.5

Do the same for Cc1ccc(C(=O)Nc2cc(CN3CCN(C4CCCC4)CC3)cc(C(F)(F)F)c2)cc1-c1ccc2nc(Nc3cnn(C)c3)ncc2c1 [Compound 27] please
94.4

Do the same for Cc1ccc(C(=O)Nc2cc(CN3C[C@H]4CC[C@@H](C3)N4C)cc(C(F)(F)F)c2)cc1-c1ccc2nc(Nc3cnn(C)c3)ncc2c1 [Compound 31] please
96

Do the same for Cc1ccc(C(=O)Nc2cc(CN3CCCN(C)CC3)cc(C(F)(F)F)c2)cc1-c1ccc2nc(Nc3cnn(C)c3)ncc2c1 [Compound 30] please
97
